Exercise: for every item that follows, state its recorded pKd.
# tested.on: T1, soluble KIR3DL1*002-Fc (human, UniProt P43629 22-338)
# T1 construct: also called KIR3DL1 allele 002; Allele 002; not shown: Fc domain
# experiment.notes: SPR (BIACORE T-100)
Answers are plain numbers, as −log10 of the molar value.

ET160-73 (antibody, human IgG1, V domains shown, Tested as human IgG1 (hIgG1), kappa light chain) VH: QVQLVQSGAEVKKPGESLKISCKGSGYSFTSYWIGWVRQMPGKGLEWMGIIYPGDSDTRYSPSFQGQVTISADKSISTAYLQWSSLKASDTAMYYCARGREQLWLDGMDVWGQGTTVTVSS VL: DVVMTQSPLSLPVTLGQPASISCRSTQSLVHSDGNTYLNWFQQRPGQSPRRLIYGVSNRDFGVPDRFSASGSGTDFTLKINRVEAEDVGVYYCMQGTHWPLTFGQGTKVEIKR
6.91

We next turn to a different binder, shown below.
In: # input binder: ET160-77 (antibody, human IgG1, V domains shown, Tested as human IgG1 (hIgG1), lambda light chain) VH: EVQLVETGGGLVKPGGSLRLSCAASGFTFSDYYMSWIRQAPGKGLEWVSYISSSSSYTNYADSVKGRFTISRDNAKNSLYLQMNSLRAEDTAVYYCAREGIAAADAFDIWGQGTMVTVSS VL: SYELTQPPSVSVAPGQAATITCAGDNIESKSVNWYQQKPGQAPVLVVYDDTVRPSGIPERFSGSNSGNPATLTISRSEAGDEADYYCQVWDNRRDHVVFGGGTKVTVLG ; wanted: its pKd
Out: 6.70
